For reference, Ki measured on rat mGluR5 receptors (Rattus norvegicus, UniProt P31424):

Cc1ccc(S(=O)(=O)c2cnc3cc(F)ccc3c2N2CCC(C)CC2)cc1C [Compound 183] = < 200 nM
Cc1ccc(S(=O)(=O)c2cnc3ccc(F)cc3c2N2CCOCC2)cc1Cl [Compound 288] = 200 to 500 nM
CC1CCN(c2c(S(=O)(=O)c3ccc(F)c(F)c3)cnc3ccc(Cl)cc23)CC1 [Compound 222] = 200 to 500 nM

Record Cc1ccc(S(=O)(=O)c2cnc3ccc(Cl)cc3c2N2CCC(C)CC2)cc1 [Compound 211] ; system rat mGluR5 receptors (Rattus norvegicus, UniProt P31424); Ki = < 200 nM

Record CC1CCN(c2c(S(=O)(=O)c3cccc(Cl)c3)cnc3cc(Cl)ccc23)CC1 [Compound 201] ; system rat mGluR5 receptors (Rattus norvegicus, UniProt P31424); Ki = < 200 nM

Record COc1ccc(S(=O)(=O)c2cnc3ccc(C)cc3c2N2CCOCC2)cc1Cl [Compound 261] ; system rat mGluR5 receptors (Rattus norvegicus, UniProt P31424); Ki = 200 to 500 nM

Record COc1ccc2ncc(S(=O)(=O)c3ccc(C)c(Cl)c3)c(N3CCOCC3)c2c1 [Compound 276] ; system rat mGluR5 receptors (Rattus norvegicus, UniProt P31424); Ki = > 500 nM

Record O=S(=O)(c1cccc(Cl)c1)c1cnc2ccc(F)cc2c1N1CCOCC1 [Compound 285] ; system rat mGluR5 receptors (Rattus norvegicus, UniProt P31424); Ki = > 500 nM
